# System: L1210 leukemia ip in BDF1 mice, survival T/C
# Assay Summary: NCI In Vivo Anticancer Drug Screen. Data for tumor model L1210 Leukemia (intraperitoneal) in B6D2F1 (BDF1) mice
# Run Conditions: endpoint: mean survival time; dose: 200.0 mg/kg/injection; schedule: Q04DX003 (ip); vehicle: Klucel (hydroxypropylcellulose) (HPC); higher = longer survival
Inconclusive results and toxic doses are left out.
The following compounds are listed with their measured T/C values.
Measurement Name: T/C

# Compound, Readout Value
data = [
    ("O=C(O)c1ccc2c([N+](=O)[O-])cccc2n1", "107 % of control"),
    ("O=S(=O)(c1ccccc1)N1CC2C3C=CC(C3)C2C1 (stereo not given)", "109 % of control"),
    ("Nc1nc(N)nc(-c2ccc(-n3nnc4ccccc4c3=O)cc2)n1", "96 % of control"),
    ("CCC(=O)N(c1ccccc1)C1/C(=C\\c2ccccc2)N2CCC1CC2 (stereo not given)", "95 % of control"),
    ("CCCc1ccccc1NC(=O)NCCCl", "89 % of control"),
    ("CCOc1ccc(NC(=O)OC(C)C)cc1", "94 % of control"),
    ("O=C(Cc1ccccc1)OCC#CC#CCOC(=O)Cc1ccccc1", "91 % of control"),
    ("CC1(C)OC(=O)C2C3CCC(C2C(=O)O)C31 (stereo not given)", "96 % of control"),
    ("Cc1cccc(C)c1NC(=O)COc1ccc(Cl)cc1", "93 % of control"),
    ("O=C(COc1ccc(Cl)cc1Cl)NCc1ccc(Cl)cc1", "96 % of control"),
    ("Cc1cc([N+](=O)[O-])ccc1NS(=O)(=O)c1ccccc1", "97 % of control"),
    ("CCn1nnc2c(N(C)C)nc(N)nc21", "92 % of control"),
    ("O=C(NC(CSC(=O)OCc1ccccc1)C(=O)Oc1ccc([N+](=O)[O-])cc1)OCc1ccccc1 (stereo not given)", "100 % of control"),
    ("CC(C)(C)CC(C)(C)c1ccc(OCCOc2ccc(NS(=O)(=O)c3ccc([N+](=O)[O-])cc3)cc2)cc1", "100 % of control"),
    ("Cc1cc2c(c(NC(=O)NCCCl)c1C)CCCC2", "96 % of control"),
    ("COc1ccc(/C=C/C(=O)c2ccc(OC)cc2)cc1", "98 % of control"),
    ("COc1ccc(OC(=O)Nc2ccccc2OC)cc1", "96 % of control"),
    ("CC(=O)N1C(=O)C(Cl)C(Cl)C(=O)N1C(C)=O (stereo not given)", "89 % of control"),
    ("Cc1ncc(-c2ccc([N+](=O)[O-])cc2)o1", "94 % of control"),
    ("O=C(NC(=S)Nc1ccc(F)cc1)c1ccco1", "97 % of control"),
    ("O=C(NCCCl)NC1CCc2ccccc21 (stereo not given)", "106 % of control"),
    ("O=C1CCCCCCC12CCCCC2", "95 % of control"),
    ("Cc1ccccc1-n1c(C)nc2ccccc2c1=O", "105 % of control"),
    ("O=C(CCCCC(=O)OCCBr)OCCBr", "102 % of control"),
    ("NC(=S)N/N=C\\c1[nH]c(=O)nc2ccccc12", "100 % of control"),
    ("Nc1ncc([N+](=O)[O-])cn1", "97 % of control"),
    ("Cc1cc([N+](=O)[O-])cc([N+](=O)[O-])c1Cl", "103 % of control"),
    ("O=C(CC(C(=O)O)N1CCOCC1)c1ccccc1 (stereo not given)", "92 % of control"),
    ("COC(=O)C(Br)C(Br)N1C(=O)c2ccccc2C1=O (stereo not given)", "105 % of control"),
    ("Cc1cc(=O)[nH]c2ccc(-c3ccc4[nH]c(=O)cc(C)c4c3)cc12", "100 % of control"),
    ("CN(C)C(=O)Nc1cccc(OP(=O)(Oc2ccccc2)Oc2ccccc2)c1", "94 % of control"),
    ("CCN(CC)CCC(=O)OC(c1ccccc1)C1(O)CCSC1 (stereo not given)", "96 % of control"),
    ("CCCCCCCCCCCCCCCCCCN1CNC(=O)NC1", "101 % of control"),
    ("O=[N+]([O-])c1cc(Cl)cc2c1-c1c(Cl)cc(Cl)cc1C2Br (stereo not given)", "96 % of control"),
    ("Cc1ccc(Cl)cc1NC(=O)c1ccccc1", "106 % of control"),
    ("O=C(O)C(Cc1ccccc1)C(=O)O.[NH2-].[NH2-].[Pt+2]", "104 % of control"),
    ("CCOC(=O)Nc1cc(Cl)ccc1C", "107 % of control"),
    ("CCOC(=O)Cn1c(=O)c2ccccc2c2cc([N+](=O)[O-])ccc21", "97 % of control"),
    ("O=C(NCCc1ccccc1)Nc1cc([N+](=O)[O-])ccc1F", "96 % of control"),
    ("Cc1ccccc1N=Cc1ccc2c(c1)OCO2", "89 % of control"),
    ("CC(C)=CCNC(=O)NS(=O)(=O)c1ccc(Cl)cc1", "103 % of control"),
    ("CCCCNC(C)(C)C1(c2ccc(Cl)cc2)SSC(c2ccc(Cl)cc2)(C(C)(C)NCCCC)SS1 (stereo not given)", "101 % of control"),
    ("CON(C)S(=O)(=O)c1ccc(Cl)cc1", "103 % of control"),
    ("CCCCn1c(=S)[nH]c2ccccc2c1=O", "95 % of control"),
    ("COc1ccnc(SCc2ccccc2)n1", "100 % of control"),
]

###

# Test system: L1210 leukemia ip in BDF1 mice, survival T/C
# Assay Summary: NCI In Vivo Anticancer Drug Screen. Data for tumor model L1210 Leukemia (intraperitoneal) in B6D2F1 (BDF1) mice
# Run Conditions: endpoint: mean survival time; dose: 100.0 mg/kg/injection; schedule: Q01DX001 (ip); vehicle: saline; higher = longer survival
# Experimental: The antitumor activity of compounds was measured in mice bearing transplantable tumors. Survival or tumor size were measured and the results are expressed as the measurement made in the treated group (T) divided by the measurement made in the vehicle treated control group (C). The tumor model used in this assay is L1210 Leukemia (intraperitoneal) in B6D2F1 (BDF1) mice
Toxic doses and inconclusive results are not listed.
Parameter: T/C. Scope: all listed entries.
Measurement Name: T/C

# Compound, Measurement Name, Readout Value
rows = [
    ("NC1(C(=O)O)CC(O)(c2ccccc2)C(O)(c2ccccc2)C1 (stereo unspecified)", "T/C", "88 % of control"),
    ("CCS(=O)(=O)c1ccc(C)cc1", "T/C", "95 % of control"),
    ("O=C(O)CCN(c1ccccc1)S(=O)(=O)c1ccccc1", "T/C", "94 % of control"),
    ("Cn1c2nc(=O)[nH]c(=O)c-2cc2ccccc21", "T/C", "100 % of control"),
    ("CC12C=CC3(CCC4C(C)(C)C(OC5OC(CO)C(O)C(O)C5O)C(=O)CC4(C)C3CC1=O)C2 (stereo unspecified)", "T/C", "100 % of control"),
    ("O=CNNCc1c[nH]c(=O)[nH]c1=O", "T/C", "96 % of control"),
    ("CCOC(=O)OC(=O)CNC(=O)CN1C(=O)c2ccccc2C1=O", "T/C", "100 % of control"),
    ("CN1CCC(CN2c3ccccc3Sc3ccccc32)CC1", "T/C", "103 % of control"),
    ("O=C1CC(C(=O)O)C(C(=O)O)C1 (stereo unspecified)", "T/C", "91 % of control"),
    ("Cn1c(=O)c2[nH]c(CC3CCCC3)nc2n(C)c1=O", "T/C", "104 % of control"),
    ("CC(=O)OCC1OC(Sc2cccc3ccccc23)C(OC(C)=O)C(OC(C)=O)C1OC(C)=O (stereo unspecified)", "T/C", "104 % of control"),
]

###

Measured T/C of individual entries
# Test system: L1210 leukemia ip in BDF1 mice, survival T/C
# Assay Summary: NCI In Vivo Anticancer Drug Screen. Data for tumor model L1210 Leukemia (intraperitoneal) in B6D2F1 (BDF1) mice
# Run Conditions: endpoint: mean survival time; dose: 400.0 mg/kg/injection; schedule: Q01DX009 (ip); vehicle: Klucel (hydroxypropylcellulose) (HPC); higher = longer survival
Inconclusive results and toxic doses are left out.

# Molecule, Study System, T/C
rows = [
    ("NC(=O)c1ccc[n+]([O-])c1", "L1210 leukemia ip in BDF1 mice, survival T/C", "98 % of control"),
    ("COc1cccc(NC(=O)c2cccc(C(=O)Nc3cccc(OC)c3)c2)c1", "L1210 leukemia ip in BDF1 mice, survival T/C", "86 % of control"),
    ("Cc1cccc(Cl)c1NC(=S)N1CCCC1", "L1210 leukemia ip in BDF1 mice, survival T/C", "96 % of control"),
    ("BrC1C2CCC(CC2)C1Br (stereo not given)", "L1210 leukemia ip in BDF1 mice, survival T/C", "94 % of control"),
    ("Cc1cc(OC(=O)NC2CCCCC2)cc(C)c1Cl", "L1210 leukemia ip in BDF1 mice, survival T/C", "94 % of control"),
]
